Assay: A quantitative high throughput screen for small molecules that induce DNA re-replication in MCF 10a normal breast cells. Further: nearly all actives have a fitted effect of over 50% in size.
Conditions: MCF 10A DNA re-replication, Hoechst nuclear intensity, 48 h; series mostly up to 46.1 µM
In all, about 350,000 compounds went through this assay and about 9,900 (2.8%) were called active. Roughly 15% stayed inconclusive and do not appear here. The call rests on the fitted dose curve; in most records, active means well fitted activation curve with a large enough effect; inconclusive means small, poorly fitted or top-dose-only effect; inactive means no such curve, though single readings can be large or run the other way. This is one part of a sample in which actives are shown more often than they occur.
Can you answer with just one of these options? Y for active, N for inactive

Would you please look over these solved cases?
{"COMPOUND": "COC(=O)[C@]1(C)N[C@H](CN(C)C(=O)c2ccc(C(C)(C)C)cc2)[C@@H]2C(=O)N(C)C(=O)[C@@H]21", "CAT": "N"}
{"COMPOUND": "O=S(=O)(NCCc1ccccn1)c1cc(Cl)cc(Cl)c1O", "CAT": "N"}
{"COMPOUND": "Cc1cccc(C(=O)NCC(=O)OCC(=O)N2CC3(C)CC2CC(C)(C)C3)c1 (configuration not stated)", "CAT": "N"}
{"COMPOUND": "CCOC(=O)CNC(=O)N1c2ccccc2Sc2ccccc21", "CAT": "N"}
{"COMPOUND": "CCc1ccc2c(c1)C1(NN=C(c3ccccc3)S1)C(=O)N2 (configuration not stated)", "CAT": "Y"}
{"COMPOUND": "COC(=O)COc1cccc2c(=O)n(CC(=O)NCCc3ccc(OC)c(OC)c3)ccc12", "CAT": "N"}

Q: Lab log entry: "Cc1ccc(CNC(=O)CCNC(=O)Cn2ccc3ccccc3c2=O)cc1" — outcome as called in the assay?
A: N

Q: Lab log entry: "O=C1C=C(c2cccc(Br)c2)C[C@@H](c2ccc(F)cc2)C1" — outcome as called in the assay?
A: N
